The reported measurements were obtained from patent US20250320281A1.

testedTarget: MuLV envelope protein (control pseudovirus) (MuLV)
assay: cell-based or functional assay
parameter: IC50 (neutralization, TZM-bl pseudovirus assay)

Worked cases, IC50 (neutralization, TZM-bl pseudovirus assay) given:
[
  {
    "binder": "1469_M23 (PG16) (TCN-118) (antibody, V domains shown) VH: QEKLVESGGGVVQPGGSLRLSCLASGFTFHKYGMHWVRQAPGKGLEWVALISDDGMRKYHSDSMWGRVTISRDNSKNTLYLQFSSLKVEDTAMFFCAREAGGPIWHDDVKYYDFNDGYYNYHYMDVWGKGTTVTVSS VL: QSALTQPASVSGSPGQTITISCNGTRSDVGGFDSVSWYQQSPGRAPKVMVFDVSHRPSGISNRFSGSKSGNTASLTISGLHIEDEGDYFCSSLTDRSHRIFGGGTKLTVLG",
    "result": "> 25 µg/mL"
  },
  {
    "binder": "1456_A12 (PG16) (TCN-117) (antibody, V domains shown) VH: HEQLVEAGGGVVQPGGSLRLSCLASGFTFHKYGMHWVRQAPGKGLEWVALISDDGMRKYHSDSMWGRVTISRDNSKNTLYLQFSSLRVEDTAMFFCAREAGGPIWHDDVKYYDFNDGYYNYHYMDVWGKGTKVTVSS VL: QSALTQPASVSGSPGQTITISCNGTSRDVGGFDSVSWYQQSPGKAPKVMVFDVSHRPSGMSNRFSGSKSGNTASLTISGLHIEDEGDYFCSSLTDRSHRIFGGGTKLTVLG",
    "result": "> 25 µg/mL"
  }
]

For the next question, use this binder.
Q: Need IC50 (neutralization, TZM-bl pseudovirus assay), item 1489_I13 (PG16) (TCN-120) (antibody, V domains shown) VH: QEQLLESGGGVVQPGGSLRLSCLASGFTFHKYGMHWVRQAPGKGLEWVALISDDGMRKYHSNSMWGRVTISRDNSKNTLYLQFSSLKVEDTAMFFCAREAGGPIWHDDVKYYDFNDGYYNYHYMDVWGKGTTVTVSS VL: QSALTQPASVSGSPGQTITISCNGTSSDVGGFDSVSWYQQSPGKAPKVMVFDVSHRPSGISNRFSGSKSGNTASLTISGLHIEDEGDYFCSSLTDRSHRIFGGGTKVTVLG
A: > 25 µg/mL
